Reference for the values: patent US20130230533A1

Listing of recorded % Blockade of IFNγ release, MLR; D1 by entry.
Target: T1, human CD48 (on primary human peripheral blood mononuclear cells) (human, UniProt P09326 27-220)
T1 sequence: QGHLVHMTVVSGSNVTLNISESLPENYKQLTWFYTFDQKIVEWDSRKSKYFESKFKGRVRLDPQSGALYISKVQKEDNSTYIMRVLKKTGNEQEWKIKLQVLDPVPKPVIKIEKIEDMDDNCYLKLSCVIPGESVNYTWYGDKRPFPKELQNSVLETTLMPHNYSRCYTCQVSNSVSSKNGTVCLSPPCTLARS
Test: cell-based or functional assay
API: value field is a number in %; no unit string.

Report % Blockade of IFNγ release, MLR; D1, nothing else, for this binder: H4H1775P (antibody, human IgG4, V domains shown, Human IgG4 Fc (H4H)) VH: QVQLVESGGGVVQPGRSLRLSCAASGFTFSNYGMHWVRQAPGKGLEWVAVIWYDESGKHYADSVKGRFTISRDNSQNTLYLQMTSLRAEDTAVYYCARDRWTYSHYFEYWGQGTLVTVSS VL: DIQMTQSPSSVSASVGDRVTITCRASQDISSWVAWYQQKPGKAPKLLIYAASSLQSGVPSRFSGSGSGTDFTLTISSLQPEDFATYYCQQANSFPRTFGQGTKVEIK
42

Report % Blockade of IFNγ release, MLR; D1, nothing else, for this binder: H4H1707N (antibody, V domains shown, Human IgG4 Fc (H4H) form of 1707N) VH: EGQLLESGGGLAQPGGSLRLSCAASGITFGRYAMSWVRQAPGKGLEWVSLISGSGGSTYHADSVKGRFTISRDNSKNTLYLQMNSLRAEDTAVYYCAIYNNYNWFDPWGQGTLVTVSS VL: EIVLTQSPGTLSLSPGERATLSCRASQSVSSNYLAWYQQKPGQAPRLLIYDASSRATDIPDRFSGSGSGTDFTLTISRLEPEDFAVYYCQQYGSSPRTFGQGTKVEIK
66

Report % Blockade of IFNγ release, MLR; D1, nothing else, for this binder: H4H1771P (antibody, human IgG4, V domains shown, Human IgG4 Fc (H4H)) VH: QVQLVQSGTEVKKPGASVKVSCKVSGYTLIDLSIHWVRQAPGEGLEWMGGFDPEESETIYAQKFQGRVTMTEDTSTDTAYMELSSLRSEDTAVYYCVTEPIFGILIHESWGQGTLVTVSS VL: DIVMTQTPLSSPVTLGQPASISCRSSHSPVHSNGHTYLSWLQQRPGQPPRILIYKISRRFSGVPDRFSGSGAGTDFTLKISRVETEDVGIYYCMQASQFPWTFGQGTKVEIK
78
